# Tested on: Panc-1 cells
# experimental-protocol: Anti-tumor activity of NK cells activated by compounds, Panc-1 (CFSE/PI flow cytometry)
# Type: cell-based
# condition-label: Homo sapiens, tumor cells treated with 20 μM compound 48 h, then mixed with NK cells 5:1 for 4 hours, CFSE+PI+ tumor cells, read-out: Panc-1 inhibition rate (%)
Please provide measured inhibition at 20 µM for the entries that follow.

# annotated cases, reported inhibition at 20 µM shown
compound: O=C(NC1CC[C@@H]2[C@H]3CCCN4CCC[C@@H](CN2C1=O)[C@@H]34)c1cc(Cl)ccc1O (stereo partly shown) [GJD 55]
readout: inhibition at 20 µM
assay-value: > 50%

compound: Nc1cccc2c1C(=O)N(C1CC[C@@H]3[C@H]4CCCN5CCC[C@@H](CN3C1=O)[C@@H]45)C2=O (stereo partly shown) [GJD 02]
readout: inhibition at 20 µM
assay-value: > 50%

compound: Nc1cccc2c1C(=O)N(C1CC[C@@H]3[C@H]4CCC[N+]5([O-])CCC[C@@H](CN3C1=O)[C@@H]45)C2=O (stereo partly shown) [GJD 63]
readout: inhibition at 20 µM
assay-value: > 50%

Lab note: each compound below needs its inhibition at 20 µM filled in.
1. CC(=O)Oc1ccccc1C(=O)NC1CC[C@@H]2[C@H]3CCCN4CCC[C@@H](CN2C1=O)[C@@H]34 (stereo partly shown) [GJD 51]
2. O=C1[C@H](N2C(=O)c3ccccc3C2=O)CC[C@@H]2[C@H]3CCCN4CCC[C@@H](CN12)[C@@H]34 [GJD 26]
3. O=C1c2cccnc2C(=O)N1C1CC[C@@H]2[C@H]3CCCN4CCC[C@@H](CN2C1=O)[C@@H]34 (stereo partly shown) [GJD 15]
4. O=C1c2ccccc2C(=O)N1C1CC[C@@H]2[C@H]3CCCN4CCC[C@@H](CN2C1=O)[C@@H]34 (stereo partly shown) [GJD 01]

Data returned:
1: < 50%; 2: > 50%; 3: > 50%; 4: < 50%

###

# Tested on: Mia-paca2 cells
# experimental-protocol: MTT tumor cell growth inhibition, Mia-paca2
# Assay type: cell-based
# condition-label: 48 h, read-out: Tumors growth-inhibitory activity (IC50) Mia-paca2
pIC50: −log10 of the molar value.
Please provide measured pIC50 for the entries that follow.

molecule: Cc1cccc2c1C(=O)N(C1=CC[C@@H]3[C@H]4CCCN5CCC[C@@H](CN3C1=O)[C@@H]45)C2=O
readout: pIC50
assay-value: 4.00 to 4.30

Here's the next entry for you.
Data request: I'd like to know its pIC50. The molecule in question is O=C1c2cccc([N+](=O)[O-])c2C(=O)N1C1CC[C@@H]2[C@H]3CCC[N+]4([O-])CCC[C@@H](CN2C1=O)[C@@H]34 (some centres unmarked)
Data returned: 4.00 to 4.30

###

# System: Lovo cells
# experimental-protocol: Anti-tumor activity of NK cells activated by compounds, Lovo (CFSE/PI flow cytometry)
# Type: cell-based
# condition-label: Homo sapiens, tumor cells treated with 20 μM compound 48 h, then mixed with NK cells 5:1 for 4 hours, CFSE+PI+ tumor cells, read-out: Lovo inhibition rate (%)
# Procedure: Logarithmic growth phase of Lovo, HpeG-2, A549, k562, Panc-1 cells were collected and seeded in a 6-well plate at a density of 5×10^5/mL and 2 mL/well separately. The experimental group was treated with 20 μM final drug concentration of GJDx compounds, and the control group was treated with an equal volume of RPMI1640 medium. The groups were cultured at 37° C., saturated humidity, 5% CO2 for 48 h. […]
readout: inhibition at 20 µM

compound: O=C(NC1CC[C@@H]2[C@H]3CCCN4CCC[C@@H](CN2C1=O)[C@@H]34)c1cc(Cl)ccc1O (stereo partly drawn)
inhibition at 20 µM: < 50%

Lab note: each compound below needs its inhibition at 20 µM filled in.
1. Nc1cccc2c1C(=O)N(C1CC[C@@H]3[C@H]4CCCN5CCC[C@@H](CN3C1=O)[C@@H]45)C2=O (stereo partly drawn)
2. O=C1c2ccccc2C(=O)N1C1CC[C@@H]2[C@H]3CCCN4CCC[C@@H](CN2C1=O)[C@@H]34 (stereo partly drawn)

Data returned:
1. > 50%
2. ≥ 50%
